From: the supplement of paper PMC10567573

protein stability index listing for selected variants.
B1: SOAT1 (parent)
chain: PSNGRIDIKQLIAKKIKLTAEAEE

Variants of: B1
ASSAY OVERVIEW: protein stability index of a GFP-peptide fusion (GPS, HEK-293T) (PSI 1-6); higher = more stable;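 also: lentivirally expressed fusions sorted by FACS into six bins by GFP to DsRed ratio, PSI derived from sequencing read proportions per bin multiplied by bin number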
TEST PARAMETERS: c terminus: a fixed tail appended

- VAR: "K14M"
  protein stability index: 2.96
- VAR: "D7A"
  protein stability index: 2.96
- VAR: "D7Q"
  protein stability index: 3.01
- VAR: "I8W"
  protein stability index: 3.08
